Would you kindly list pEC50 for each of these molecules?
test system: NCI-H358 human non-small cell lung cancer; assay: NCI-H358 CCK-8 proliferation assay; assay type: cell-based; settings: NCI-H358 cells, 72 hr
pEC50: −log10 of the molar value.

Ask: Which measured pEC50 value corresponds to CCc1cc(-c2nnc(C(=O)NC(C)C)n2-c2ccc(CN3CCN(CC4CCN(C(=O)CCNc5nc6c(c(N7CCN(C(C)=O)CC7)n5)CCN(c5cc(O)cc7ccccc57)C6)CC4)CC3)cc2)c(O)cc1O ?
Reply: 6.00 to 7.00

Ask: Which measured pEC50 value corresponds to C=CC(=O)N1CCN(c2nc(NCCC(=O)NCCOCCOc3ccc(-n4c(O)nnc4-c4cc(C(C)C)c(O)cc4O)cc3)nc3c2CCN(c2cc(O)cc4ccccc24)C3)CC1 ?
Reply: < 6.00

Ask: Which measured pEC50 value corresponds to CC(=O)N1CCN(c2nc(NCCC(=O)N3CCN(Cc4ccc5c(c4)CN(C(=O)c4cc(C(C)C)c(O)cc4O)C5)CC3)nc3c2CCN(c2cc(O)cc4ccccc24)C3)CC1 ?
Reply: < 6.00

Ask: Which measured pEC50 value corresponds to CCNC(=O)c1nnc(-c2cc(CC)c(O)cc2O)n1-c1ccc(CN2CCN(CC3CCN(C(=O)CCNc4nc5c(c(N6CCN(C(=O)CC)CC6)n4)CCN(c4cc(O)cc6ccccc46)C5)CC3)CC2)cc1 ?
Reply: > 7.00

###

system: NCI-H358 human non-small cell lung cancer; test: NCI-H358 CCK-8 proliferation assay; format: cell-based; settings: NCI-H358 cells, 72 hr
pEC50: −log10 of the molar value.
property-measured: pEC50

Ask: Which measured pEC50 value corresponds to C=C(F)C(=O)N1CCN(c2nc(N3CCC(CN4CCC(Cc5ccc(-n6c(O)nnc6-c6cc(C(C)C)c(O)cc6O)cc5)CC4)CC3)nc3c2CCN(c2cccc4cccc(Cl)c24)C3)C[C@@H]1CC#N ?
Reply: 6.00 to 7.00

Ask: Which measured pEC50 value corresponds to CC(=O)N1CCN(c2nc(NCCC(=O)N3CCN(Cc4ccc(-n5c(O)nnc5-c5cc(C(C)C)c(O)cc5O)cc4)CC3)nc3c2CCN(c2cc(O)cc4ccccc24)C3)CC1 ?
Reply: < 6.00

###

biological target: KRAS(G12C) (Homo sapiens, UniProt P01116, G12C); assay: KRAS(G12C)/SOS1 homogeneous time-resolved fluorescence (HTRF) assay; parameters: purchased Cisbio 63ADK000CB16PEG; details: absence of GTP, 4° C. for 3 hr, read-out: KRAS (G12C) binding
Sequence (P01116 1-188 isoform P01116-2 G12C): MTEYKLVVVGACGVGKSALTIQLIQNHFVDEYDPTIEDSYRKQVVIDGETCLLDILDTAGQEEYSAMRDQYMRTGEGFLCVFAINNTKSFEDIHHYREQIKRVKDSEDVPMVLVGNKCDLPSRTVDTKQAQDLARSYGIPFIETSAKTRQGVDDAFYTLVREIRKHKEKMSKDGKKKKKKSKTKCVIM
pIC50: −log10 of the molar value.
property-measured: pIC50

Ask: Which measured pIC50 value corresponds to C=CC(=O)N1CCN(c2nc(OC[C@@H]3CC[C@H](CN4CCN(Cc5ccc(-n6c(C(=O)NCC)nnc6-c6cc(C(C)C)c(O)cc6O)cc5)CC4)N3C)nc3c2CCN(c2cccc4ccccc24)C3)C[C@@H]1CC#N ?
Reply: > 7.00

Ask: Which measured pIC50 value corresponds to C=C(F)C(=O)N1CCN(c2nc(OCCN3CCN(C(=O)C4CCN(Cc5ccc(-n6c(C(=O)NCC(F)(F)F)nnc6-c6cc(C(C)C)c(O)cc6O)cc5)CC4)CC3)nc3c2CCN(c2cccc4cccc(Cl)c24)C3)C[C@@H]1CC#N ?
Reply: 6.00 to 7.00

Ask: Which measured pIC50 value corresponds to C=CC(=O)N1CCN(c2nc(OC[C@@H]3C[C@H](N4CCC(C(=O)N5CCC6(CC5)CN(Cc5ccc(-n7c(O)nnc7-c7cc(C(C)C)c(O)cc7O)cc5)C6)CC4)CN3C)nc3c2CCN(c2cccc4cccc(Cl)c24)C3)C[C@@H]1CC#N ?
Reply: > 7.00

Ask: Which measured pIC50 value corresponds to C=CC(=O)N1CCN(c2nc(OC[C@@H]3C[C@H](N4CCN(Cc5ccc(-n6c(O)nnc6-c6cc(C(C)C)c(O)cc6O)cc5)CC4)CN3C)nc3c2CCN(c2cccc4cccc(Cl)c24)C3)C[C@@H]1CC#N ?
Reply: > 7.00

Ask: Which measured pIC50 value corresponds to C=CC(=O)N1CCN(c2nc(OCC3CN(C(=O)C4CCN(Cc5ccc(-n6c(C(=O)NCC(F)(F)F)nnc6-c6cc(C(C)C)c(O)cc6O)cc5)CC4)C3)nc3c2CCN(c2cccc4cccc(Cl)c24)C3)C[C@@H]1CC#N ?
Reply: 6.00 to 7.00

Ask: Which measured pIC50 value corresponds to C=CC(=O)N1CCN(c2nc(OC[C@@H]3C[C@@H](NC(=O)C4CCN(Cc5ccc(-n6c(C(N)=O)nnc6-c6cc(C(C)C)c(O)cc6O)cc5)CC4)CN3C)nc3c2CCN(c2cccc4cccc(Cl)c24)C3)C[C@@H]1CC#N ?
Reply: 6.00 to 7.00

Ask: Which measured pIC50 value corresponds to C=CC(=O)N1CCN(c2nc(OC[C@@H]3C[C@@H](NC(=O)C4CCN(Cc5ccc(-n6c(O)nnc6-c6cc(C)c(O)cc6O)cc5)CC4)CN3C)nc3c2CCN(c2cccc4cccc(Cl)c24)C3)C[C@@H]1CC#N ?
Reply: 6.00 to 7.00

Ask: Which measured pIC50 value corresponds to C=CC(=O)N1CCN(c2nc(OC[C@@H]3C[C@H](NC(=O)C4CCN(C(=O)C5CCN(Cc6ccc(-n7c(O)nnc7-c7cc(C(C)C)c(O)cc7O)cc6)CC5)CC4)CN3C)nc3c2CCN(c2cccc4cccc(Cl)c24)C3)C[C@@H]1CC#N ?
Reply: > 7.00

Ask: Which measured pIC50 value corresponds to C=CC(=O)N1CCN(c2nc(OC[C@@H]3CCN(C(=O)C4CCN(Cc5ccc(-n6c(C(=O)NCC(F)(F)F)nnc6-c6cc(C(C)C)c(O)cc6O)cc5)CC4)C3)nc3c2CCN(c2cccc4cccc(Cl)c24)C3)C[C@@H]1CC#N ?
Reply: 6.00 to 7.00

Ask: Which measured pIC50 value corresponds to C=CC(=O)N1CCN(c2nc(OC[C@@H]3C[C@H](N4CCC(C(=O)NCCc5ccc(CN6CCC(Cc7ccc(-n8c(C(=O)NCC(F)(F)F)nnc8-c8cc(C(C)C)c(O)cc8O)cc7)CC6)cc5)CC4)CN3C)nc3c2CCN(c2cccc4cccc(Cl)c24)C3)C[C@@H]1CC#N ?
Reply: 6.00 to 7.00

Ask: Which measured pIC50 value corresponds to C=CC(=O)N1CCN(c2nc(OCCN3CCN(Cc4ccc(-n5c(O)nnc5-c5cc(C(C)C)c(O)cc5O)cc4)CC3)nc3c2CCN(c2cccc4cccc(Cl)c24)C3)C[C@@H]1CC#N ?
Reply: > 7.00

Ask: Which measured pIC50 value corresponds to C=CC(=O)N1CCN(c2nc(OC[C@@H]3C[C@H](N4CCN(Cc5ccc(-n6c(O)nnc6-c6cc(C(C)C)c(O)cc6O)cc5)CC4)CN3C)nc3c2CCN(c2cccc4ccc(F)c(Cl)c24)C3)C[C@@H]1CC#N ?
Reply: > 7.00

Ask: Which measured pIC50 value corresponds to CCC(=O)N1CCN(c2nc(NCCC(=O)NCc3ccc(CN4CCC(Cc5ccc(-n6c(C(=O)NCC(F)(F)F)nnc6-c6cc(C(C)C)c(O)cc6O)cc5)CC4)cc3)nc3c2CCN(c2cc(O)cc4ccccc24)C3)CC1 ?
Reply: < 6.00

Ask: Which measured pIC50 value corresponds to C=CC(=O)N1CCN(c2nc(OC[C@@H]3C[C@@H](OC(=O)NCc4ccc(-n5c(O)nnc5-c5cc(CC)c(O)cc5O)cc4)CN3C)nc3c2CCN(c2cccc4cccc(Cl)c24)C3)C[C@@H]1CC#N ?
Reply: 6.00 to 7.00

Ask: Which measured pIC50 value corresponds to C=CC(=O)N1CCN(c2nc(OCCN3CCC4(CC3)CCN(C(=O)C3CCN(Cc5ccc(-n6c(O)nnc6-c6cc(C(C)C)c(O)cc6O)cc5)CC3)CC4)nc3c2CCN(c2cccc4cccc(Cl)c24)C3)C[C@@H]1CC#N ?
Reply: > 7.00

Ask: Which measured pIC50 value corresponds to CC(=O)N1CCN(c2nc(NCCC(=O)NCc3ccc(CN4CCC(Cc5ccc(-n6c(C(=O)NCC(F)(F)F)nnc6-c6cc(C(C)C)c(O)cc6O)cc5)CC4)cc3)nc3c2CCN(c2cc(O)cc4ccccc24)C3)CC1 ?
Reply: < 6.00
